Experiment: chemical genetic growth profiling, strain panel (AID 1159580);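 note: tested at 20 µM; growth read once vehicle control cultures reached saturation at 30 °C; 1 = growth at the plate median or of vehicle wells; lower values mean less growth of the strain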
Settings: S. cerevisiae deletion strains, growth OD, locus YHR094C, strain hxt1
Hit rate of the full screen: of about 5,500 compounds, about 2,000 (36%) were called active. About 18% were inconclusive and are not listed. Cut-off read from the data, not from the text of the source: active = normalized growth mostly below about 0.91 (no sharp cut-off); inconclusive = no clear call, values can overlap the other calls; inactive = mostly above about 0.92. This is one part of the list.
Your answer must be one of the following: TRUE (active), FALSE (inactive)

CCCCCCCCCCCCC[N+](C)(C)Cc1ccccc1; TRUE
COc1ccc(C(=O)c2ccccc2O)c(O)c1; FALSE
Cc1cc(C(C)(C)CC(C)(C)C)ccc1OCCOCC[N+](C)(C)Cc1ccccc1; TRUE
C=C1CC[C@H](O)C/C1=C/C=C1\CCC[C@]2(C)C([C@H](C)/C=C/[C@H](C)C(C)C)CC[C@@H]12 (stereo partly specified); FALSE
O=c1ccc2ccccc2o1; FALSE

For CC1(O)/C=C/C=C(\CO)C2CC(C)(C)C2(O)CC1 (stereo unspecified) , what call appears in the results of this test?
FALSE

* * *

Assay: chemical genetic growth profiling, strain panel (AID 1159580)
Conditions: S. cerevisiae deletion strains, growth OD, locus YDR297W, strain sur2, hits give low values
Hit rate of the full screen: of about 5,500 compounds, about 2,000 (36%) were called active. Another 18% or so got no clear call; they are omitted. This is one part of the list.
PARAMETER: normalized growth
Give bare numbers.

For every item in the list below, what is its measured normalized growth?
1. CC(C)(C)CC(C)(C)c1ccc(OCCOCC[N+](C)(C)Cc2ccccc2)cc1
2. Cc1cc(C(C)(C)CC(C)(C)C)ccc1OCCOCC[N+](C)(C)Cc1ccccc1
3. CC(C)N(C(=O)CCl)c1ccccc1
4. NCC1CCCCC1CC(=O)O (centres undefined)

[0.0635, 0.0548, 1.03, 1.05]

* * *

Kindly supply the reported normalized growth values for the records listed here.
Test: chemical genetic growth profiling, strain panel (AID 1159580)
Details: S. cerevisiae deletion strains, growth OD, locus YDL028C, strain MPS1, hits give low values
Screen size: about 5,500 compounds; about 2,000 (36%) were called active. Another 18% or so got no clear call; they are omitted. Some of the results follow.
Numbers only.

// worked examples, normalized growth included
O=[N+]([O-])c1cc(C(F)(F)F)ccc1-n1ccc(-c2cccs2)n1; 0.958
Cc1ccccc1C(=O)N1CCc2c([nH]c3ccccc23)C1C(F)(F)F (centres undefined); 0.979
CC1=CC(=O)C(CCOCCC2=CC(=O)C(C)=CC2=O)=CC1=O; 0.981
Cc1c(C(=O)N2CCCCC2)cc(-c2ccccc2)n1-c1ccccc1; 0.946
S=C(Nc1cc(-c2cccs2)[nH]n1)Nc1ccccc1Cl; 0.932

Each of the following entries comes with a recorded value; kindly state normalized growth for each.
1. O=C(Nc1c(Br)c(C2CC2)nn1-c1ccccc1)C(Cl)(Cl)Cl
2. Cn1c([N+](=O)[O-])cnc1/C=C(\C#N)C(=O)Nc1ccc(F)cc1

0.93
0.874

I have 2 molecules here; please give me normalized growth for each one.
1. Cc1cc(SCc2[nH]nc3oc(=O)cc(C)c23)c(Cl)cc1Cl
2. O=C(CCN1CCCCC1)c1ccc(-c2ccccc2)cc1

[0.991, 0.984]

* * *

Test: chemical genetic growth profiling, strain panel (AID 1159580)
Details: S. cerevisiae deletion strains, growth OD, locus YJR043C, strain POL32
In all, about 5,500 compounds went through this assay and about 2,000 (36%) were called active. Inconclusive results (about 18%) are left out. No stated cut-off is given here; in the data, active means normalized growth mostly below about 0.91 (no sharp cut-off); inconclusive means no clear call, values can overlap the other calls; inactive means mostly above about 0.92. This is one part of the list.
Lab note: assign the record to one of true for active, false for inactive

CC(C)N(C(=O)CCl)c1ccccc1; false
O=C(O)c1ccccc1OP(=O)(O)O; false
CCCCCC(=O)O[C@]1(C(C)=O)CCC2C3CCC4=CC(=O)CC[C@]4(C)C3CC[C@@]21C (some centres undefined); false
CCc1nc(N)nc(N)c1-c1ccc(Cl)cc1; false
CCCCOc1ccc(C(=O)CCC(=O)O)cc1; true
O=C1CC(c2ccc(O)cc2)Oc2ccccc21 (centres undefined); true
O=C1C[C@@H](c2ccccc2)Oc2cc(O)cc(O)c21; false
CCC1(C)CC(=O)NC1=O (centres undefined); false

Which outcome did this test record for the molecule `Cc1ccc(Oc2ccc(C)cc2)cc1` ?
false

How was `Cc1cc(C)c(NC(=S)NCCCN2CCOCC2)c(C)c1` classified in this test?
false

For Cc1ccc(C(=O)C(C)CN2CCCCC2)cc1 (centres undefined) , which call appears in the assay record?
false

Recorded call for `C[C@@H]1O[C@@H](O[C@H]2[C@@H](Oc3cc(O)c4c(c3)O[C@H](c3ccc(O)cc3)CC4=O)O[C@H](CO)[C@@H](O)[C@@H]2O)[C@H](O)[C@H](O)[C@H]1O` ?
false

Test call for this molecule, please: `COc1ccc([C@@H]2CC(=O)c3c(O)cc(O)cc3O2)cc1O`
false

Test call, this molecule: CCC(C(N)=O)c1ccccc1 (centres undefined)
false

Give the logged outcome of this assay for the following molecule: COc1cc(OC)c2c(c1)OC(c1ccccc1)CC2=O (centres undefined)
false

Call for entry `CCC1(c2ccccc2)C(=O)NCNC1=O` :
false

Per the assay record, what outcome was assigned to CCc1cccc(C)c1N(C(=O)CCl)C(C)COC (centres undefined) ?
false

Hi, do you know how `OC(CCN1CCCCC1)(c1ccccc1)c1ccccc1` came out in this test?
false

# fetch the recorded call for COc1ccc(C2CC(=O)c3ccc(OC)cc3O2)cc1 (centres undefined) here
false

Answer briefly: the call reported for O=C1CC(c2ccccc2)Oc2ccccc21 (centres undefined) in this assay.
false

* * *

Test: chemical genetic growth profiling, strain panel (AID 1159580);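 note: tested at 20 µM; growth read once vehicle control cultures reached saturation at 30 °C; 1 = growth at the plate median or of vehicle wells; lower values mean less growth of the strain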
Conditions: S. cerevisiae deletion strains, growth OD, locus YPR119W, strain clb2, hits give low values
The whole screen tested about 5,500 compounds, of which about 2,000 (36%) were called active. Another 18% or so got no clear call; they are omitted. The list shows a part of the results.
PARAMETER: normalized growth
Give bare numbers.

Example cases with answers are listed next.
COc1ccc2cc1Oc1ccc(cc1)C[C@H]1c3cc(c(OC)cc3CCN1C)Oc1c(OC)c(OC)cc3c1[C@H](C2)N(C)CC3; 1.01
CCCCCC(=O)O[C@]1(C(C)=O)CCC2C3CCC4=CC(=O)CC[C@]4(C)C3CC[C@@]21C (stereo not given in full); 1.01
CCCCOc1ccc(CC(=O)NO)cc1; 1.01

Kindly give each listed record's normalized growth.
1. CC(=O)[C@H]1CCC2C3C[C@H](C)C4=CC(=O)CC[C@]4(C)C3[C@@H](O)C[C@@]21C (stereo not given in full)
2. Oc1c(Cl)c(Cl)c(Cl)c(Cl)c1Cl
3. COc1ccc(-c2coc3c(OC)c(OC)ccc3c2=O)cc1
4. CC1(C)S[C@@H]2[C@H](NC(=O)[C@H](NC(=O)N3CCNC3=O)c3ccccc3)C(=O)N2C1C(=O)O (stereo not given in full)
5. CCOC(=O)/C=C(\C)OP(=O)(OC)OC
6. COc1ccc(-c2coc3c(OC)c(OC)cc(OC)c3c2=O)cc1
7. COc1ccc(-c2coc3c(O)c(OC)ccc3c2=O)cc1

[0.978, 0.691, 1.02, 0.997, 1, 0.987, 0.928]

* * *

Assay: chemical genetic growth profiling, strain panel (AID 1159580);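 note: tested at 20 µM; growth read once vehicle control cultures reached saturation at 30 °C; 1 = growth at the plate median or of vehicle wells; lower values mean less growth of the strain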
Details: S. cerevisiae deletion strains, growth OD, locus YNL322C, strain KRE1
Hit rate of the full screen: of about 5,500 compounds, about 2,000 (36%) were called active. Another 18% or so got no clear call; they are omitted. No stated cut-off is given here; in the data, active means normalized growth mostly below about 0.91 (no sharp cut-off); inconclusive means no clear call, values can overlap the other calls; inactive means mostly above about 0.92. The list shows a part of the results.
// classify into active, inactive

CC1(C)C2CC[C@]3(C)C(C(=O)C=C4[C@H]5C[C@@](C)(C(=O)O)CC[C@]5(C)CC[C@]43C)[C@@]2(C)CC[C@@H]1O (some centres undefined); inactive

# lookup: test call for `COc1ccc(C(=O)c2ccccc2O)c(O)c1`
inactive

* * *

Give measured normalized growth for each item. Keep answers brief.
Experiment: chemical genetic growth profiling, strain panel (AID 1159580);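 note: tested at 20 µM; growth read once vehicle control cultures reached saturation at 30 °C; 1 = growth at the plate median or of vehicle wells; lower values mean less growth of the strain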
Details: S. cerevisiae deletion strains, growth OD, locus YOR080W, strain dia2, hits give low values
The campaign covered roughly 5,500 compounds. About 2,000 (36%) were called active. Another 18% or so got no clear call; they are omitted. The list shows a part of the results.
Numbers only.

Examples with their reported normalized growth follow.
NC(N)=NOCC[C@H](N)C(=O)O; 1.02
COc1ccc(-c2cc(=O)c3c(O)cc(OC)c(OC)c3o2)c(OC)c1; 1.04
O=C(/C=C/c1ccccc1)O[C@H]1C[C@@H](O)[C@]2(O)C=CO[C@@H](O[C@@H]3O[C@H](CO)[C@@H](O)[C@H](O)[C@H]3O)[C@H]12; 1.03

Specify reported normalized growth for the molecule shown: CC(=O)O[C@H]1C(=O)[C@@]2(C)C([C@H](OC(=O)c3ccccc3)[C@]3(O)C[C@H](OC(=O)[C@H](O)[C@@H](NC(=O)c4ccccc4)c4ccccc4)C(C)=C1C3(C)C)[C@]1(OC(C)=O)CO[C@@H]1C[C@@H]2O (some centres undefined)
1.01
